# Experimental System: Chromobox protein homolog 1 (Homo sapiens) (UniProt P83916)
# Sequence (P83916 whole entry, looked up): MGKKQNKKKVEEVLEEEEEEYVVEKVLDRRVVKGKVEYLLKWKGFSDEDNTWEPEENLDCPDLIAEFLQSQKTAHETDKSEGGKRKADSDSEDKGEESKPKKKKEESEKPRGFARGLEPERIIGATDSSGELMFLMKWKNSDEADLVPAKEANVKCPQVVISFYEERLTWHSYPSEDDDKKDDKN
# Method Summary: HTS for Inhibitors of HP1-beta Chromodomain Interactions with Methylated Histone Tails; also: nearly all actives have a fitted effect of over 70% in size; also: potency is read from the fitted curve at half-maximal effect
# Stated Conditions: AlphaScreen HP1-beta / biotin-H3K9me3 peptide binding; series mostly up to 114 µM
Screen size: about 390,000 compounds; about 2,200 (0.56%) were called active. Roughly 3% stayed inconclusive and do not appear here. What follows is part of a selection rich in actives, with near analogues and random picks from the rest.
Attribute Measured: Potency

Study these solved cases before continuing.
Cc1cc(C)cc(NC(=O)CSc2nc3nccnc3c(=O)n2CCc2c[nH]c3ccccc23)c1    inactive
NC1=NOC(=O)C1C1CCCCC1 (stereo not drawn)    5.01 µM (active)
CN(C)c1ccc(/C=C/C(=O)c2ccc(C(C)(C)C)cc2)cc1[N+](=O)[O-]    31.6 µM (active)
O=C(COc1ccccc1[N+](=O)[O-])NC1CC1    inactive
COc1ccc2c(c1)CCc1c(C(=O)Nc3cc(C)ccc3O)noc1-2    inactive
Cc1ccc(C(=O)CC2(O)C(=O)N(CCc3ccccc3)c3ccc(Br)cc32)cc1 (stereo not drawn)    inactive
Fc1ccc(CSc2nc(NCc3ccccc3)c3ccccc3n2)cc1    inactive
Cc1ccc(OCC(=O)Nc2ccc(Cl)c(-c3nc4ccccc4[nH]3)c2)cc1C    inactive
COc1ccc(C2CC(=O)N(Cc3ccccc3C)c3c2c(C)nn3-c2nc(C)cc(C)n2)c(OC)c1 (stereo not drawn)    inactive
O=C1C=CC(=O)N1c1ccc(N2CCCCC2)cc1    15.8 µM (active)

Consider the compound shown here: Brc1nc2ncnc(NCc3ccco3)c2[nH]1 What is its recorded Potency? inactive

Same question for Cc1ccc(-c2onc(C)c2C)cc1S(=O)(=O)Nc1ccccn1 please. inactive

Could you do the same for Cc1cccc(-n2ncc(C(=O)N3CCc4ccccc4C3)c2C2CCN(C(=O)OC(C)(C)C)CC2)c1 , please? inactive

For COc1ccc(/C=C/c2noc(-c3ccccc3O)n2)cc1OC then? inactive

Now the same for CCCSc1ncc(Cl)c(C(=O)Nc2c(C(=O)Nc3ccccc3)oc3ccccc23)n1 inactive

Try the compound Cc1ccccc1CNC(=O)CCCn1nc(C)c2sc3ccccc3c2c1=O inactive

* * *

# Experimental System: Chromobox protein homolog 1 (Homo sapiens) (UniProt P83916)
# Method Summary: HTS for Inhibitors of HP1-beta Chromodomain Interactions with Methylated Histone Tails; also: nearly all actives have a fitted effect of over 70% in size
# Stated Conditions: AlphaScreen HP1-beta / biotin-H3K9me3 peptide binding; series mostly up to 114 µM
In all, about 390,000 compounds went through this assay and about 2,200 (0.56%) were called active. About 3% were inconclusive and are not listed. Calls come from the whole dose curve; as a rule, active = well fitted inhibition curve with a large enough effect; inconclusive = small, poorly fitted or top-dose-only effect; inactive = no such curve, though single readings can be large or run the other way. This is one part of a sample in which actives are shown more often than they occur.
Give your call using only these classes: active, inactive

The examples below pair each entry with its known result.
Cc1cc([N+](=O)[O-])c(N2CCC[C@@H]2C(=O)O)c([N+](=O)[O-])c1    inactive
Cc1cc([N+](=O)[O-])c(NC2CCCCC2)c([N+](=O)[O-])c1    active
CCOC(=O)c1cc2c(=O)n3ccccc3nc2n(CC2CCCO2)c1=NC(=O)c1ccccc1F (stereo not given)    inactive
CCCCC(=O)OC1=CN(Cc2ccccc2)S(=O)(=O)c2ccccc21    inactive
CN(C)c1ccc(C(CC(=O)O)C(=O)O)cc1 (stereo not given)    inactive

Recorded test outcome, item O=C(NC1=CC(=O)c2ccccc2C1=O)c1ccccc1 active

Repeat for the following molecule: Cc1cc(C)cc(NC(=O)c2cnc3sc(N4CCCC4)nn3c2=O)c1 inactive

Another molecule to check: CCN(CC)S(=O)(=O)c1cccc(NC(=O)c2ccc(S(=O)(=O)N3CCCC3)cc2)c1 inactive

Let us now turn to COc1cccc(CNC(=O)CCc2nc(-c3ccc(C)cc3)no2)c1 inactive

Can you handle COC(=O)c1ccc(/C=N/N2C(C)CCCC2C)cc1 (stereo not given) next? inactive
